I'd be grateful if you could share measured activity change, negative = inhibition for these entries.
test: Acumen qHTS Assay for Inhibitors of the mTORC1 Signaling Pathway in MEF (Tsc2-/-, p53-/-) Cells: Hit Validation; conditions: Acumen imaging; at 37.3 µM (top of the series);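 also: phospho-rpS6 Ser235/236 immunofluorescence normalized to propidium iodide cell count; nearly all actives have a fitted effect of over 65% in size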;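 as to activity change, negative = inhibition: cells exposed to compound for 24 hours; plate controls were DMSO for no effect and 7.5 nM rapamycin control for full effect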
Results filed as inconclusive are left out.
Numbers only, in %.

Check out these entries, answers already filled in.
[[record]]
compound = "CCOc1ccc(CNC(=O)c2ccccc2NC(=O)c2nsc3ccccc23)cc1"
assay_metric = "activity change, negative = inhibition"
unit_annotation = "%"
number = -112

[[record]]
compound = "CCc1ccc(S(=O)(=O)c2c(C(=O)c3ccc(C)c(C)c3)cnc3ccccc23)cc1"
assay_metric = "activity change, negative = inhibition"
unit_annotation = "%"
number = 5.96


Please report activity change, negative = inhibition for every entry that follows.
1. CCOC(=O)C1CCN(C(=O)CSc2c3c(nc4ccc(Cl)cc24)CCCC3)CC1
2. O=C(CN1C(=O)C(c2ccc(F)cc2)=NC12CCCCCC2)Nc1ccccc1Cl
3. CCOc1ccc(Nc2nc(N)c(C(=O)c3ccccc3Cl)s2)cc1
4. CC(C)c1ccc(NS(=O)(=O)c2ccc3nc(-c4ccccc4)[nH]c3c2)cc1
5. COc1ccc(OCC(=O)NCc2ccc3c(c2)CCN3C(=O)c2cccc(C)c2)cc1
6. COc1ccc2c(c1)CC(C(=O)Nc1cc(Cl)ccc1C)CO2 (stereo not given)
7. COc1ccccc1C1C=C(c2ccc(Cl)cc2)Nc2nc(-c3ccc(Cl)cc3)nn21 (stereo not given)

Data returned:
[-5.08, 12.4, -95, -0.821, -87.8, -12.5, -9.46]

State the recorded activity change, negative = inhibition for every item in the following list.
1. COc1ccc(-c2n[nH]c3c2C(c2ccc(O)cc2)N(c2ccc(Br)cc2)C3=O)cc1 (stereo not given)
2. COc1cc(OC)cc(C(=O)NCCc2csc(-c3cccc(C)c3)n2)c1
3. CCOc1ccc(CCNCc2c(C(=O)O)n(Cc3ccc(C)cc3)c3cc(OC)ccc23)cc1
4. CCCCOc1cccc(C(=O)N2CCN(CCc3ccncc3)CC2)c1
5. CCOc1ccc(CC(=O)NC2CC(=O)N(c3ccc4c(c3)OCCO4)C2)cc1 (stereo not given)

Data returned:
1: 2.17; 2: -7.07; 3: -26.5; 4: 0.726; 5: -2.04

----------
assay: Acumen qHTS Assay for Inhibitors of the mTORC1 Signaling Pathway in MEF (Tsc2-/-, p53-/-) Cells: Hit Validation; details: Acumen imaging; at 37.3 µM (top of the series);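 also: phospho-rpS6 Ser235/236 immunofluorescence normalized to propidium iodide cell count; nearly all actives have a fitted effect of over 65% in size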;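 as to activity change, negative = inhibition: cells exposed to compound for 24 hours; plate controls were DMSO for no effect and 7.5 nM rapamycin control for full effect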
Records with an inconclusive call do not appear.
Decision: activity change, negative = inhibition >= -20% yields true, all other cases yield false.

[[record]]
chemical_string = "CCCC(=O)OC1=CN(Cc2ccccc2)S(=O)(=O)c2ccccc21"
answer_label = "false"


Data request: Textbook exercise: given the entry CCOc1ccc(NC(=O)N(Cc2c[nH]c3ccccc23)C2CCCCCC2)cc1 , state whether its activity change, negative = inhibition is greater than or equal to -20%.
Data returned: true

Data request: Is activity change, negative = inhibition at least -20%? Consider CCOc1ccc(-c2nc(SCC(=O)c3ccccc3)n[nH]2)cc1
Data returned: false

Data request: State whether the measured activity change, negative = inhibition reaches -20%, counting equality as reaching it, for COc1cc2ncnc(Nc3ccc(F)c(Cl)c3)c2cc1OCCCN1CCOCC1
Data returned: true

Data request: hey, is activity change, negative = inhibition for this one >= -20%? Cc1cc(C)c(NC(=O)c2sc3nc(C)cc(C)c3c2NC(=O)c2ccccc2)c(C)c1
Data returned: true

----------
test: Acumen qHTS Assay for Inhibitors of the mTORC1 Signaling Pathway in MEF (Tsc2-/-, p53-/-) Cells: Hit Validation; conditions: Acumen imaging;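 also: phospho-rpS6 Ser235/236 immunofluorescence normalized to propidium iodide cell count; nearly all actives have a fitted effect of over 65% in size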; also: potency is read from the fitted curve at half-maximal effect
Results filed as inconclusive are left out. Activity calls are given as the source filed them. Calls come from the whole dose curve; as a rule, active = well fitted inhibition curve with a large enough effect; inconclusive = small, poorly fitted or top-dose-only effect; inactive = no such curve, though single readings can be large or run the other way.
For each entry below, report its Potency value.

Answered cases to consult:
[[record]]
compound = "CN(c1ccccc1)S(=O)(=O)c1ccc(NC(=O)c2nc(S(C)(=O)=O)ncc2Cl)cc1"
result = "1.47 µM (active)"

[[record]]
compound = "Cc1cc(-c2ccc(S(=O)(=O)Nc3cccc(C)c3C)s2)on1"
result = "4.14 µM (active)"

[[record]]
compound = "O=C(Nc1ccc(F)c(F)c1)c1ccc(F)c(S(=O)(=O)N2CCC3(CC2)OCCO3)c1"
result = "10.4 µM (active)"

[[record]]
compound = "CCC1CCc2nc3sc(C(=O)Nc4cccc(F)c4)c(N)c3cc2C1 (stereo not drawn)"
result = "5.21 µM (active)"

[[record]]
compound = "COc1ccc(NC(=O)c2c(C)oc3ccc(O)c(CN4CCCC(C)C4)c23)cc1Cl (stereo not drawn)"
result = "9.27 µM (active)"

[[record]]
compound = "CCOC(=O)N1CCN(Cc2nc3cc(NC(=O)CC(C)C)ccc3n2C(C)C)CC1"
result = "2.61 µM (active)"

[[record]]
compound = "COc1cc(C(=O)NC(c2ccccc2Cl)c2cc(Cl)c3cccnc3c2O)cc(OC)c1OC (stereo not drawn)"
result = "2.33 µM (active)"

[[record]]
compound = "Cc1ccc(CN2C(=O)C(O)(CC(=O)c3ccc(C)cc3)c3ccccc32)cc1 (stereo not drawn)"
result = "4.65 µM (active)"


Take each entry in turn and give its Potency.
1. CCOc1ccccc1NS(=O)(=O)c1ccc(-c2cnc(C3CC3)o2)cc1
2. CCOC(=O)Cc1ccc(NC(=O)n2ncc3cc(Cl)ccc32)cc1
3. Cc1ccccc1S(=O)Cc1ccc(C(=O)N2CCN(c3cccc(C)c3C)CC2)o1 (stereo not drawn)

Data returned:
1. 0.464 µM (active)
2. 8.26 µM (active)
3. 6.56 µM (active)

# return Potency for each item in the list
1. CCCCS(=O)(=O)c1oc(-c2ccc(F)cc2)nc1S(=O)(=O)c1ccc(C)cc1
2. Cc1cccc(NC(=O)Cn2cc(C(=O)C3CCCCC3)c3ccccc32)c1C
3. Cc1ccc(-n2c(=O)c3ccc(C(=O)NCc4ccco4)cc3n(Cc3ccc(Cl)cc3)c2=O)cc1
4. Fc1ccc(Nc2nc3nonc3nc2Nc2cccc(C(F)(F)F)c2)cc1
5. CCC1CCc2nc3sc(C(=O)Nc4ccc(C)cc4)c(N)c3cc2C1 (stereo not drawn)

Data returned:
4.65 µM (active)
1.04 µM (active)
9.27 µM (active)
1.85 µM (active)
8.26 µM (active)

State the recorded Potency for every item in the following list.
1. COc1cccc(-c2nnc3sc(CN4CCCCC4)cn23)c1
2. COC(=O)c1ccccc1NC(=O)Cn1c(=O)n(-c2ccc(C)cc2)c(=O)c2ccccc21
3. Cc1ccc2[nH]c(=O)c3cc(C(=O)NCCCN4CCC(C)CC4)sc3c2c1
4. CCCS(=O)(=O)c1ncc(Cl)c(C(=O)Nc2c(C(=O)Nc3ccccc3)oc3ccccc23)n1

Data returned:
1.04 µM (active)
5.85 µM (active)
13.1 µM (active)
0.585 µM (active)

Could you report Potency for every entry in the following list?
1. CCS(=O)(=O)c1ncc(Cl)c(C(=O)N(Cc2ccccc2)c2ccc(OC)cc2)n1
2. CC1CCCN(CCCNC(=O)c2ccc3c(c2)N(Cc2ccc(Cl)cc2)C(=O)c2ccccc2S3(=O)=O)C1 (stereo not drawn)
3. Cc1ccc(C)c(CN2C(=O)C(=O)c3ccccc32)c1

Data returned:
2.93 µM (active)
13.1 µM (active)
1.47 µM (active)

----------
Test: Acumen qHTS Assay for Inhibitors of the mTORC1 Signaling Pathway in MEF (Tsc2-/-, p53-/-) Cells: Hit Validation;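 also: phospho-rpS6 Ser235/236 immunofluorescence normalized to propidium iodide cell count; nearly all actives have a fitted effect of over 65% in size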;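 as to activity change, negative = inhibition: cells exposed to compound for 24 hours; plate controls were DMSO for no effect and 7.5 nM rapamycin control for full effect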
Settings: Acumen imaging; at 37.3 µM (top of the series)
Source text: The mammalian target of rapamycin (mTOR) is an intracellular serine/threonine kinase Aberrant regulation of mTOR signaling plays a causative role in a number of human diseases, including cancer, benign tumors such as lymphangioleiomyomatosis (LAM) and Tuberous Sclerosis Complex (TSC), and metabolic diseases such as diabetes and obesity. This project aims to identify inhibitors of ribosomal protein S6 (rpS6) phosphorylation. The phosphorylation of rpS6 is a key event downstream of mTOR activation. […]
Results filed as inconclusive are left out.
activity change, negative = inhibition below -20% gives FALSE; activity change, negative = inhibition at or above it gives TRUE.

Solved entries (count: 6):
[[record]]
compound = "CC(C)CCNC(=O)Nc1ccc2c(c1)N(C)C(=O)c1ccccc1S2"
answer_label = "TRUE"

[[record]]
compound = "COc1cc(-c2ccno2)ccc1S(=O)(=O)N1CCN(c2cc(C)ccc2C)CC1"
answer_label = "FALSE"

[[record]]
compound = "Cc1ccc(S(=O)(=O)c2nc(-c3ccco3)oc2SC(C)c2ccccc2)cc1 (stereo not given)"
answer_label = "TRUE"

[[record]]
compound = "COc1ccc2cc(CNc3ccccc3)c(=O)n(CC(=O)Nc3ccc(C)cc3C)c2c1"
answer_label = "FALSE"

[[record]]
compound = "Cc1cccc(NC(=O)c2c(N)sc3c2CCC(C)C3)c1 (stereo not given)"
answer_label = "TRUE"

[[record]]
compound = "COc1ccc(Cl)cc1S(=O)(=O)NCc1ccc2c(c1)CCN2C(=O)c1cccc(C)c1"
answer_label = "FALSE"


Data request: Hi team, for Cc1ccc(NC(=O)COc2ccc(-c3nn(C)c(=O)c4ccccc34)cc2)c(C)c1 , is the recorded activity change, negative = inhibition at or above -20%?
Data returned: FALSE

Data request: Given CCc1nn(CC(=O)NCc2ccccc2)c(=O)c2cccn12 , state whether its activity change, negative = inhibition is at least -20%.
Data returned: TRUE

Data request: Test whether the compound CCN1CCN(C(=O)Cn2ncc3c4ccccc4n(Cc4c(C)cc(C)cc4C)c3c2=O)CC1 records activity change, negative = inhibition of -20% or higher.
Data returned: TRUE

Data request: Kindly determine if activity change, negative = inhibition recorded for COC(=O)c1ccccc1NC(=O)CSc1n[nH]c(CC(C)C)n1 is above or exactly -20%.
Data returned: TRUE

Data request: Please tell me: is the compound Cc1ccc(C)c(S(=O)(=O)NCC(c2ccco2)S(=O)(=O)c2ccc(F)cc2)c1 (stereo not given) at or over -20% in terms of activity change, negative = inhibition?
Data returned: TRUE
